Measured pKi accompanies every entry in the list below.
# experimental-system: α2β3γ2 GABAA/BzR (Homo sapiens, UniProt P18507+P47869)
# run-description: Competition binding to HEK cell membranes, α2β3γ2
# Set-up: expressed in transfected cells
# experimental-parameters: Ki α2
pKi: −log10 of the molar value.
observed-property: pKi

>>> obs_value("C#Cc1ccc2c(c1)C(=O)N1CCC1c1c(-c3ocnc3C(=O)OCC)ncn1-2 (stereo not shown) [RY-069]")
6.21
>>> obs_value("O=C1C2C=Nc3ccccc3C2=NN1c1ccccc1 (stereo not shown) [QH-II-090 (CGS-8216), reference compound]")
10.10
>>> obs_value("CC(C)(C)OC(=O)c1cc2c(cn1)[nH]c1ccccc12 [BCCt]")
10.38
>>> obs_value("CC(C)(C)OC(=O)c1ncn2c1[C@@H]1CCCN1C(=O)c1c(Br)cccc1-2 [BRETAZENIL, reference compound]")
9.19
>>> obs_value("CCOC(=O)c1cc2c(cn1)[nH]c1ccc(C#C[Si](C)(C)C)cc12 [WY-B-99-1]")
8.35
>>> obs_value("COCc1c(C(=O)OC(C)C)ncc2[nH]c3ccc(OCc4ccccc4)cc3c12 [ABECARNIL, reference compound]")
7.82
>>> obs_value("CC(C)(C)OC(=O)c1cc2c(cn1)[nH]c1ccc(F)cc12 [CM-A87]")
8.34
>>> obs_value("C#Cc1ccc2c(c1)C(=O)N(C)Cc1c(C(=O)OCCCCCOC(=O)c3ncn4c3CN(C)C(=O)c3cc(C#C)ccc3-4)ncn1-2 [compound 56]")
6.18
>>> obs_value("Cc1nnc2n1-c1ccc(Cl)cc1C(c1ccccc1)=NC2 [alprazolam, reference compound]")
9.23

---

Catalogue of molecules with associated pKi
# experimental-system: α5β3γ2 GABAA/BzR (Homo sapiens, UniProt P18507+P31644)
# run-description: Competition binding to HEK cell membranes, α5β3γ2
# Design: expressed in transfected cells
# experimental-parameters: read-out: Ki α5
pKi: −log10 of the molar value.
observed-property: pKi

>>> obs_value("O=C(OCC(F)(F)F)c1cc2c(cn1)[nH]c1ccccc12")
6.90
>>> obs_value("CCOC(=O)c1ncn2c1CN=C(c1ccccc1F)c1cc(-c3ccco3)ccc1-2")
7.50
>>> obs_value("O=C(O)c1ncn2c1CN=C(c1ccccc1)c1cc(Br)ccc1-2")
8.33
>>> obs_value("O=C(OCC(F)(F)F)c1ncn2c1CN=C(c1ccccc1)c1ccccc1-2")
8.11
>>> obs_value("O=C(OCC(F)(F)F)c1cc2c(cn1)[nH]c1ccc(-c3cccs3)cc12")
6.35

---

# experimental-system: α6β3γ2 GABAA/BzR (Homo sapiens, UniProt P18507+Q16445)
# run-description: Competition binding to HEK cell membranes, α6β3γ2
# Design: expressed in transfected cells
# experimental-parameters: read-out: Ki α6
observed-property: log10 of Ki (log10 of the value in nM)

>>> obs_value("CCc1c(C(=O)OC)ncc2[nH]c3cc(OC)c(OC)cc3c12 [DMCM, reference compound]")
2.13
>>> obs_value("COc1ccc2c(c1)C(=O)N1CCC[C@H]1c1c(C(=O)OCC(F)(F)F)ncn1-2 [CM-E09a]")
2.86
>>> obs_value("C#Cc1ccc2c(c1)C(c1ccccc1F)=NCc1c(C(=O)OCC(F)(F)F)ncn1-2 [JYI-59 (C22H13N3O2F4)]")
3.70
>>> obs_value("O=C(OC(C(F)(F)F)C(F)(F)F)c1ncn2c1C1CCCN1C(=O)c1ccccc1-2 (stereo not drawn)")
2.99
>>> obs_value("Cc1nnc2n1-c1ccc(Br)cc1C(c1ccccc1Cl)=NC2 [DM-II-90]")
3.70
>>> obs_value("C#Cc1ccc2c(c1)C(=O)N1CCCC1c1c(C(=O)OC(C)(C)C)ncn1-2 (stereo not drawn)")
0.52
>>> obs_value("CCOC(=O)c1ncn2c1CN=C(c1ccccc1F)c1cc(Br)ccc1-2")
1.72
>>> obs_value("O=c1c2c[nH]c3ccccc3c-2nn1-c1ccccc1")
1.23
>>> obs_value("O=C(OCC(F)(F)F)c1cc2c(cn1)[nH]c1ccccc12")
3.00
>>> obs_value("CC(OC(=O)c1ncn2c1C1CCCN1C(=O)c1ccccc1-2)C(F)(F)F (stereo not drawn)")
2.52
>>> obs_value("C#Cc1ccc2c(c1)C(c1ccccc1F)=NCC(=O)N2C")
0.70
>>> obs_value("CC(C)OC(=O)c1ncn2c1[C@@H]1CCCN1C(=O)c1cc(Br)ccc1-2")
1.56

---

# pKi per entry
# experimental-system: α1β3γ2 GABAA/BzR (Homo sapiens, UniProt P14867+P18507)
# run-description: Competition binding to HEK cell membranes, α1β3γ2
# Design: expressed in transfected cells
# experimental-parameters: read-out: Ki α1
pKi: −log10 of the molar value.
observed-property: pKi

>>> obs_value("CCC(OC(=O)c1ncn2c1C1CCCN1C(=O)c1cc(Br)ccc1-2)C(F)(F)F (mixture of isomers) [CM-B34]")
6.33
>>> obs_value("CC[C@@H](C)OC(=O)c1cc2c(cn1)[nH]c1ccccc12 [CM-A49 (R)]")
8.11
>>> obs_value("C#Cc1ccc2c(c1)C(c1ccccc1F)=NCc1nnc(C)n1-2")
8.20
>>> obs_value("Cc1nnc2n1-c1ccc(Br)cc1C(c1ccccc1Cl)=NC2")
9.30
>>> obs_value("O=C(OCC(F)(F)F)c1ncn2c1CN=C(c1ccccc1F)c1cc(-c3ccco3)ccc1-2")
8.54
>>> obs_value("O=C(OC(C(F)(F)F)C(F)(F)F)c1ncn2c1C1CCCN1C(=O)c1ccccc1-2 (stereo not drawn)")
6.93
>>> obs_value("CCOC(=O)c1ncn2c1CN=C(c1ccccc1F)c1cc(-c3ccco3)ccc1-2")
7.12
>>> obs_value("C#Cc1ccc2c(c1)C(c1cccs1)=NCC(=O)N2C")
7.06
>>> obs_value("C#Cc1ccc2c(c1)C(c1ccccc1F)=NCC(=O)N2")
8.43

---

# experimental-system: α5β3γ2 GABAA/BzR (Homo sapiens, UniProt P18507+P31644)
# run-description: Competition binding to HEK cell membranes, α5β3γ2
# Parameters: expressed in transfected cells
# experimental-parameters: read-out: Ki α5
pKi: −log10 of the molar value.
observed-property: pKi

>>> obs_value("Cc1nnc2n1-c1ccc(Br)cc1C(c1ccccc1F)=NC2 [JYI-64]")
9.06
>>> obs_value("C#Cc1ccc2c(c1)C(c1ccccc1Cl)=NCC(=O)N2C [XLi352]")
8.71
>>> obs_value("CCCC(=O)c1cc2c(cn1)[nH]c1ccccc12 [MSA-IV-35]")
6.00
>>> obs_value("C=Cc1ccc2c(c1)C(=O)N1CCC[C@H]1c1c(C(=O)OCC(F)(F)F)ncn1-2 [JYI-12]")
8.35
>>> obs_value("CC(C)(C)OC(=O)c1cc2c(cn1)[nH]c1ccccc12 [SH-TSC-2]")
7.16
>>> obs_value("Cc1nnc2n1-c1ccc(Br)cc1C(c1ccccc1Cl)=NC2 [DM-II-90 (C17H12N4BrCl)]")
9.43
>>> obs_value("Fc1ccc2c(c1)[nH]c1c2ncc2[nH]c3ccccc3c21 [MLT-II-16]")
6.59
>>> obs_value("CCOC(=O)c1ncc2[nH]c3ccc(OCc4cccc5ccccc45)cc3c2c1COC [EDC-II-044]")
6.49
